Hey, just so you know, these numbers are from PubChem BioAssay (NCATS).

Assign Potency to each entry below.
# ASSAY INFO: Quantitative High-Throughput drug screen in 47 multiple myeloma cell lines against the NCATS MIPE library collection: SKMM1_PLB cell viability assay (AID 1919863); also: potency is read from the fitted curve at half-maximal effect; nearly all actives have a fitted effect of over 35% in size
# SETUP CONDITIONS: SKMM1 myeloma viability, CellTiter-Glo ATP, 48 h
# Description: PI: Beverly A. Mock Ph.D. Laboratory of Cancer Biology and Genetics, Center for Cancer Research, National Cancer Institute, National Institute of Health, Bethesda, Maryland […] 5; Detector; 425V; Luminescence; Viewlux PerkinElmer. […] 1. […] Briefly, the corresponding myeloma cell lines were screened in 1,536-well plates with 500 cells, 5-uL per well for inhibition of cell viability (assessed by measuring ATP levels with CellTiterGlo). […]
Results filed as inconclusive are left out. Calls of active or inactive are those of the source. Calls follow the shape of the dose curve; as a rule, active = well fitted cell-killing curve with a large enough effect; inconclusive = small, poorly fitted or top-dose-only effect, or effect the other way; inactive = no such curve, though single readings can be large or run the other way.

**Query** Quick one: Potency of CC[C@@]1([C@@H]2O[C@@H]([C@H]3O[C@@](O)(CO)[C@H](C)C[C@H]3C)C[C@H]2C)CC[C@H]([C@]2(C)CC[C@]3(C[C@H](O)[C@@H](C)[C@@H]([C@@H](C)[C@@H](OC)[C@H](C)C(=O)O)O3)O2)O1 ?
**Result** 323 nM (active)

**Query** Same again, this time with COc1ccc2c(c1OC)C(=O)OC2[C@H]1c2c(cc3c(c2OC)OCO3)CCN1C (stereo partly drawn)
**Result** 23.5 nM (active)

**Query** Lookup NS(=O)(=O)OC[C@@H]1C[C@@H](n2ccc3c(N[C@H]4CCc5ccccc54)ncnc32)C[C@H]1O
**Result** 1050 nM (active)

**Query** Quick one: C=CC(=O)Nc1cc(NC(=O)c2ccc(C)c(NC(=O)c3ccno3)c2)cc(C(F)(F)F)c1
**Result** 18700 nM (active)

**Query** Entry CC(C=CC(=O)NO)=C[C@@H](C)C(=O)c1ccc(N(C)C)cc1 please
**Result** 166 nM (active)

**Query** Also check CCC(C(=O)O)C1CCC(C)C(C(C)C(O)C(C)C(=O)C(CC)C2OC3(C=CC(O)[C@@]4(CC[C@](C)(C5CC[C@@](O)(CC)C(C)O5)O4)O3)C(C)CC2C)O1 (stereo partly drawn)
**Result** 2640 nM (active)

**Query** Further, for O=C1NCCc2[nH]c(-c3ccncc3)cc21 ?
**Result** 5260 nM (active)

**Query** Next: Cn1cc(C[C@@H](N)C(=O)O)c2ccccc21
**Result** 7240 nM (active)

**Query** And what about the compound C[C@H](NC(=O)C(C#N)=Cc1cccc(Br)n1)c1ccccc1 ?
**Result** 3720 nM (active)

**Query** Then COc1cccc2c1C(=O)c1c(O)c3c(c(O)c1C2=O)C[C@@](O)(C(=O)CO)C[C@@H]3O[C@H]1C[C@H](N)[C@H](OC2CCCCO2)[C@H](C)O1 (stereo partly drawn) ?
**Result** 2640 nM (active)

**Query** Entry CS[C@H]1SC[C@@H]2C(=O)N(C)[C@H](C(C)C)C(=O)OC[C@H](NC(=O)c3cnc4ccccc4n3)C(=O)N[C@H](C)C(=O)N(C)[C@@H]1C(=O)N(C)[C@H](C(C)C)C(=O)OC[C@H](NC(=O)c1cnc3ccccc3n1)C(=O)N[C@H](C)C(=O)N2C please
**Result** 9.3 nM (active)

**Query** Try NC(=NCCCCCCN=C(N)N=C(N)Nc1ccc(Cl)cc1)N=C(N)Nc1ccc(Cl)cc1 next.
**Result** 11800 nM (active)

**Query** Now try Nc1ccc(C(=O)Nc2cccc(-c3nc(N4CCOCC4)c4oc5ncccc5c4n3)c2)cn1 .
**Result** 23500 nM (active)

**Query** Now consider COc1cccc2c1C(=O)c1c(O)c3c(c(O)c1C2=O)C[C@@](O)(C(C)=O)C[C@H]3O[C@H]1C[C@H](N)[C@H](O)[C@H](C)O1 and answer again.
**Result** 166 nM (active)

**Query** Also, C=C(C)[C@@H]1CC[C@]2(C(=O)O)CC[C@]3(C)[C@H](CC[C@@H]4[C@@]5(C)CC[C@H](O)C(C)(C)[C@@H]5CC[C@]43C)[C@@H]12 please.
**Result** 935 nM (active)

**Query** Repeat for the following compound: c1ccc(CNc2nc(NCc3ccccc3)c3ccccc3n2)cc1
**Result** 29600 nM (active)

**Query** Again, but for CNC(=O)c1ccc(Nc2cc(Nc3ccccc3S(=O)(=O)C(C)C)c3cc[nH]c3n2)nc1
**Result** 18700 nM (active)

**Query** Next record, please: CCC(C=C[C@@H]1OC(=O)C=C[C@H]1C)=C[C@H](C)CC=CC(C)=C[C@@H](C)C(=O)[C@@H](C)[C@H](O)[C@@H](C)CC(C)=CC(=O)O
**Result** 22 nM (active)

**Query** Repeat for the following compound: Cc1coc2c1C(=O)C(=O)c1c-2ccc2c(C)cccc12
**Result** 14800 nM (active)

**Query** Please do the same for O=C(O)C[C@H](O)C[C@H](O)C=Cc1c(C2CC2)nc2ccccc2c1-c1ccc(F)cc1 as well.
**Result** 11800 nM (active)

**Query** Would you kindly repeat that for Oc1ccc(-c2ccc(-c3cc(Nc4cccc(CNC5CC5)c4)n[nH]3)cc2)c(O)c1 ?
**Result** 5260 nM (active)

**Query** Now consider CCOC(=O)C1=C(C)NC(=S)NC1c1cccc(O)c1 (stereo not drawn) and answer again.
**Result** 52.6 nM (active)

**Query** Same thing, different compound: Cc1cnc(Nc2ccc(N3CCN(C)CC3)cc2)nc1Nc1cccc(S(=O)(=O)NC(C)(C)C)c1
**Result** 3320 nM (active)

**Query** Check C[C@H](NCc1ccc(OCc2cccc(F)c2)cc1)C(N)=O too.
**Result** 18700 nM (active)

**Query** What do you get for C[C@@H](Oc1ccc2[nH]nc(C=Cc3cnn(CCO)c3)c2c1)c1c(Cl)cncc1Cl ?
**Result** 26400 nM (active)

**Query** Can you check COc1cc2c(cc1O)CCC1C2CC[C@@]2(C)C1CC[C@@H]2O (stereo partly drawn) next?
**Result** 833 nM (active)

**Query** # iterate: Cc1ncc(-c2ccnc(Nc3ccc(S(C)(=O)=O)cc3)n2)n1C(C)C
**Result** 5260 nM (active)

**Query** Same question, CC[C@]12C=CCN3CC[C@@]4(c5cc([C@@]6(C(=O)OC)C[C@H]7C[C@@H](C(C)(F)F)CN(Cc8c6[nH]c6ccccc86)C7)c(OC)cc5N(C)[C@H]4[C@@](O)(C(=O)OC)[C@H]1OC(C)=O)[C@@H]32 this time
**Result** 9.3 nM (active)

**Query** Same lookup for FC(F)c1nc2ccccc2n1-c1nc(N2CCOCC2)nc(N2CCOCC2)n1 , please.
**Result** 1480 nM (active)

**Query** Moving on to the next compound: CCNC(=O)c1cc2c(-c3cc(OCCN4CCCC4)c(Cl)cc3Cl)nc(N)nc2s1
**Result** 2350 nM (active)

**Query** And what about the compound COc1cc(C)c(Sc2cnc(NC(=O)c3ccc(CNC(C)C(C)(C)C)cc3)s2)cc1C(=O)N1CCN(C(C)=O)CC1 (stereo not drawn) ?
**Result** 20900 nM (active)

**Query** Field entry: O=C(C=CC#Cc1cccc(NS(=O)(=O)c2ccccc2)c1)NO
**Result** 2350 nM (active)

**Query** Moving on to the next compound: CO[C@@H]1[C@@H](O)[C@H](O)[C@@H](n2c3c(Cl)cccc3c3c4c(c5c6cccc(Cl)c6[nH]c5c32)C(=O)NC4=O)O[C@@H]1CO
**Result** 2350 nM (active)
